experiment: in vitro; conditions: human
CC50 values, listed per item
endpoint: CC50 (µM)

• CN(C)CCOc1ccc(/C(=C(/CCCl)c2ccccc2)c2ccccc2)cc1 [Toremifene] = 26.9
• CNCCC(Oc1ccc(C(F)(F)F)cc1)c1ccccc1 (stereo not drawn) [Fluoxetine] = 28.7
• CN1[C@@H]2CC[C@H]1C[C@@H](OC(c1ccccc1)c1ccccc1)C2 [Benztropine] = 52.9
• CC(C)COCC(CN(Cc1ccccc1)c1ccccc1)N1CCCC1 (stereo not drawn) [Bepridil] = 34.7
• CCCCOc1cc(C(=O)NCCN(CC)CC)c2ccccc2n1 [Dibucaine] = 67.1
• Fc1ccc([C@@H]2CCNC[C@H]2COc2ccc3c(c2)OCO3)cc1 [Paroxetine] = 23.1
• CN[C@H]1CC[C@@H](c2ccc(Cl)c(Cl)c2)c2ccccc21 [Sertraline] = 22.6
• CN(C)CCCN1c2ccccc2CCc2ccccc21 [Imipramine] = 76.3

---

assay: in vitro; settings: human, CC50 (µM)
endpoint: CC50 (µM)

- OCCOc1ccc(/C(=C(/CCCl)c2ccccc2)c2ccccc2)cc1: 56

---

test system: A549 cells; settings: human
endpoint: CC50 (µM)

• OCCOc1ccc(/C(=C(/CCCl)c2ccccc2)c2ccccc2)cc1 = 57

---

test system: pseudotyped WT-EBOV; experiment: microbe, parasite or virus in culture; assay type: cell-based, Ebola virus; conditions: Zaire ebolavirus, A549, read-out: Toremifene IC50 (µM)
endpoint: IC50 (µM)

• CN(C)CCOc1ccc(/C(=C(/CCCl)c2ccccc2)c2ccccc2)cc1 = 0.01

---

IC50 values, listed per item
test system: pseudotyped WT-MARV; test: microbe, parasite or virus in culture; assay type: cell-based, Marburg virus; conditions: Human immunodeficiency virus 1, A549, read-out: IC50 (µM) (MARV)
endpoint: IC50

* Fc1ccc([C@@H]2CCNC[C@H]2COc2ccc3c(c2)OCO3)cc1 | 3.1 µM
* CC(=O)N[C@@H](CC(C)C)C(=O)N[C@@H](CC(C)C)C(=O)N[C@H](C=O)CCCNC(=N)N | 0.6 µM
* CC(C)COCC(CN(Cc1ccccc1)c1ccccc1)N1CCCC1 (stereo not shown) | 10 µM
* CN(C)CCOc1ccc(/C(=C(/CCCl)c2ccccc2)c2ccccc2)cc1 | 1.6 µM
* CN(C)CCCN1c2ccccc2CCc2ccccc21 | 6.4 µM
* CCCCOc1cc(C(=O)NCCN(CC)CC)c2ccccc2n1 | 6 µM
* OCCOc1ccc(/C(=C(/CCCl)c2ccccc2)c2ccccc2)cc1 | 35 µM
